Provide the reported GI50 of each item.
Test system: SK-MEL-28 melanoma
ASSAY COMMENT: NCI tumour cell line growth inhibition, 48 h

Consider the following illustrative entries.
Any idea what GI50 was measured for O=C(Nc1cccc(-n2cc(-c3ccncc3)c(-c3ccc(O)c(Cl)c3)n2)c1)Nc1cccc(C(F)(F)F)c1 ?
1.95 µM

Any idea what GI50 was measured for O=C1CCS/C(=N\S(=O)(=O)c2ccc(N3N=C4c5ccccc5CC4C3c3cccs3)cc2)N1C(=O)c1ccccc1 (stereo not drawn) ?
50.2 µM

Now turn to the next compound.
Any idea what GI50 was measured for Nc1ncnc2c1cnn2Cc1ccc(Cl)cc1 ?
74.8 µM
